Listing: pIC50 of selected compounds
Target Desc: nociceptin receptor ORL1 (Homo sapiens, UniProt P41146)
Sequence (P41146 whole entry): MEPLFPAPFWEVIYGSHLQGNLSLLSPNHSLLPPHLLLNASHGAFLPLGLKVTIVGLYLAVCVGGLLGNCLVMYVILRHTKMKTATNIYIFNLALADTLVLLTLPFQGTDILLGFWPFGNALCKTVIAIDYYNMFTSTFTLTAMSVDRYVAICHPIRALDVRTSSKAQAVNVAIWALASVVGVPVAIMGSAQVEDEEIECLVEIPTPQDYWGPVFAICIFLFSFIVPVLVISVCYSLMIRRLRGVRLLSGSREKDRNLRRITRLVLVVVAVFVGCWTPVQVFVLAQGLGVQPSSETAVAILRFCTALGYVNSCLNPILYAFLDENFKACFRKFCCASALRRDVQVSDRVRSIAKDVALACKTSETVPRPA
Assay Explanation: Nociceptin receptor binding inhibition assay ([125I]Tyr14-Nociceptin, CHO/ORL1 membrane fractions, SPA beads)
Design: expressed in transfected cells; membrane fractions
pIC50: −log10 of the molar value.
Reported Property: pIC50

1) O[C@H]1C[C@H](CN2C3CCC2CC2(C3)OCc3cc(F)ncc32)CCc2cccnc21 (some centres unmarked); 9.28
2) CC1(C)OC2(CCN(C[C@@H]3Cc4cccnc4[C@@H](O)C3)CC2)c2ccccc21.O=C(O)C(O)C(O)C(=O)O [Example 25, mono-L-tartrate]; 8.60
3) Cl.O[C@@H]1[C@@H](c2ccc(F)cc2Cl)CC2CC[C@@H]1N2C[C@@H]1Cc2cccnc2[C@@H](O)C1 (relative stereo) [Example 71, monohydrochloride]; 8.85
4) O[C@H]1C[C@H](CN2C3CCC2CC2(C3)OCc3ccccc32)CCc2cccnc21 (some centres unmarked); 9.43
5) CC1(C)OC2(CC3CCC(C2)N3C[C@@H]2Cc3cccnc3[C@@H](O)C2)c2cnc(F)cc21 (stereo partly drawn) [Example 70, mono-L-tartrate]; 9.41
